Biological target: T1, full-length human OX40 protein (human, UniProt P43489 29-277)
T1 construct: whole, on cells; also called hOX40; CD134
T1 sequence (looked up): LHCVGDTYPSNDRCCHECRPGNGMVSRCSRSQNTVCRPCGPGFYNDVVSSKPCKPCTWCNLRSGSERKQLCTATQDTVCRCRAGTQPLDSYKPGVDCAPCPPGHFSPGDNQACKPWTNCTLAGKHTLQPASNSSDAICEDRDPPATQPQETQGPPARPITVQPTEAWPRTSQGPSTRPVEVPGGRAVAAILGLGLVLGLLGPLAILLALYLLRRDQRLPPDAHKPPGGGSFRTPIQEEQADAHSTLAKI
Experiment: FACS on L929-hOX40 cells, PE anti-human FC secondary antibody
pEC50: −log10 of the molar value.

{"binder": "anti-human OX40 antibody BC3-7 (OX40 VHH-Fc) (Fc fusion, VHH fused through a linker to human IgG Fc, expressed in ExpiCHO, purified on Protein A; also called OX40 BC3-7; OX40 VHH-Fc antibody; not shown: linker encoded by the CMV-12GS-FC vector; human IgG FC fragment (hFC)) EVQLVESGGGLVQPGGSLRLSCAASGSIYDFDVMGWFRQAPGKGRELVAAINSFGDITYYPDSVEGRFTISRDNAKRMVYLQMNSLRAEDTAVYYCAADWHVLIQQVLGYWGQGTQVTVSS", "pEC50": 9.16}
{"binder": "anti-human OX40 antibody BC3-6 (OX40 VHH-Fc) (Fc fusion, VHH fused through a linker to human IgG Fc, expressed in ExpiCHO, purified on Protein A; also called OX40 BC3-6; OX40 VHH-Fc antibody; not shown: linker encoded by the CMV-12GS-FC vector; human IgG FC fragment (hFC)) EVQLVESGGGLVQPGGSLRLSCAASGSILDSNLMGWFRQAPGKGRELVASINSYDDNTYYPDSVEGRFTISRDNAKRMVYLQMNSLRAEDTAVYYCAAQVFVGWPYTDQMHDYWGQGTQVTVSS", "pEC50": 9.26}
{"binder": "anti-human OX40 antibody BC3-4 (OX40 VHH-Fc) (Fc fusion, VHH fused through a linker to human IgG Fc, expressed in ExpiCHO, purified on Protein A; also called OX40 BC3-4; OX40 VHH-Fc antibody; not shown: linker encoded by the CMV-12GS-FC vector; human IgG FC fragment (hFC)) EVQLVESGGGLVQPGGSLRLSCAASGFIFSAYFMGWFRQAPGKGRELVAAINSNDDITYYPDSVEGRFTISRDNAKRMVYLQMNSLRAEDTAVYYCAAWLGAENYGYWGQGTQVTVSS", "pEC50": 9.06}
{"binder": "anti-human OX40 antibody BC3-1 (OX40 VHH-Fc) (Fc fusion, VHH fused through a linker to human IgG Fc, expressed in ExpiCHO, purified on Protein A; also called OX40 BC3-1; OX40 VHH-Fc antibody; not shown: linker encoded by the CMV-12GS-FC vector; human IgG FC fragment (hFC)) EVQLVESGGGLVQPGGSLRLSCAASGSIFSVYVMGWFRQAPGKGRELVAAITPFDDNTYYPDSVEGRFTISRDNAKRMVYLQMNSLRAEDTAVYYCAADWEWPEYNYWGQGTQVTVSS", "pEC50": 9.31}
